Test system: DIPGX37 (H3.3 K27M diffuse intrinsic pontine glioma line)
method.notes: area under dose-response curve of % growth inhibition (log2 RLU vs DMSO / staurosporine), 1e-11 to 1e-4 M (% x log10 M); higher = more growth inhibition
Classify by area under dose-response curve. Ranges: low = under 10, middle = from 10 up to 80, high = 80 and over

INSERT INTO assay_data (molecule, target_or_test_system, class_name) VALUES
  ('COc1ccc(C2CC(c3ccccc3)=NN2c2ccc(S(N)(=O)=O)cc2)cc1 (centres undefined)', 'DIPGX37', 'middle');

Which area under dose-response curve category applies to CCCCc1oc2ccc(NS(C)(=O)=O)cc2c1C(=O)c1ccc(OCCCN(CCCC)CCCC)cc1 here?
high

For this molecule, which bin applies? Cn1cnc2c(F)c(Nc3ccc(Br)cc3Cl)c(C(=O)NOCCO)cc21
high

====

What EC50 (log10 M) was measured for each of the following?
Test system: iAstro (astrocyte control)
method.notes: EC50 (inflection of fitted growth-inhibition curve) (log10 M)
Numbers only.

INSERT INTO measurements (chemical_structure, data_value) VALUES
  ('COC(=O)Nc1nc2cc(C(=O)c3ccccc3)ccc2[nH]1', -5.94),
  ('CC[C@@]1(O)C(=O)OCc2c1cc1n(c2=O)Cc2cc3c(CN(C)C)c(O)ccc3nc2-1', -7.87),
  ('CCOC(=O)c1ccc(C#Cc2ccc3c(c2)C(C)(C)CCS3)nc1', -4.78);

Hey, can you go through the list below and give me EC50 (log10 M) for every item?
1. OC1(c2ccc(Cl)c(C(F)(F)F)c2)CCN(CCCC(c2ccc(F)cc2)c2ccc(F)cc2)CC1
2. COc1ncc(-c2ccc3nccc(-c4ccnnc4)c3c2)cc1NS(=O)(=O)c1ccc(F)cc1F

1. -5.63
2. -5.44

====

For each entry below, report its area under dose-response curve value.
System: HABS (astrocyte control)
method.notes: area under dose-response curve of % growth inhibition (log2 RLU vs DMSO / staurosporine), 1e-11 to 1e-4 M (% x log10 M); higher = more growth inhibition
Answers are plain numbers.

INSERT INTO assay_data (molecule, observation_type, data_value) VALUES
  ('C[C@@]12OC(=O)[C@]1([C@@H](O)[C@@H]1C=CCCC1)NC(=O)[C@@H]2CCCl [MARIZOMIB]', 'area under dose-response curve', 149),
  ('CC(C)c1c2cc(-c3ccnc(NC4CCC(NC5CCOCC5)CC4)n3)ccc2nn1C (stereo unspecified)', 'area under dose-response curve', 135),
  ('COc1ccc(C[C@H](NC(=O)[C@H](C)NC(=O)CN2CCOCC2)C(=O)N[C@@H](Cc2ccccc2)C(=O)C2(C)CO2)cc1 (stereo in doubt) [ONX-0914]', 'area under dose-response curve', 206),
  ('CO[C@H]1C[C@@H]2CC[C@@H](C)[C@@](O)(O2)C(=O)C(=O)N2CCCC[C@H]2C(=O)O[C@H]([C@H](C)C[C@@H]2CC[C@@H](OC(=O)C(C)(CO)CO)[C@H](OC)C2)CC(=O)[C@H](C)/C=C(\C)[C@@H](O)[C@@H](OC)C(=O)[C@H](C)C[C@H](C)/C=C/C=C/C=C/1C [TEMSIROLIMUS]', 'area under dose-response curve', 88.3),
  ('CC(C)C[C@H](NC(=O)[C@H](Cc1ccccc1)NC(=O)c1cnccn1)B(O)O [BORTEZOMIB]', 'area under dose-response curve', 506);

For each listed entry, give its area under dose-response curve.
1. CO[C@H]1C[C@@H]2CC[C@@H](C)[C@@](O)(O2)C(=O)C(=O)N2CCCC[C@H]2C(=O)O[C@H]([C@H](C)C[C@@H]2CC[C@@H](OCCO)[C@H](OC)C2)CC(=O)[C@H](C)/C=C(\C)[C@@H](O)[C@@H](OC)C(=O)[C@H](C)C[C@H](C)/C=C/C=C/C=C/1C [EVEROLIMUS]
2. COc1cc(F)ccc1-c1ncnc(Nc2cccc(CS(C)(=N)=O)c2)n1 (stereo unspecified)
3. Nc1ccc2ncnc(NCCc3ccc(Oc4ccccc4)cc3)c2c1 [EVP4593]
4. CCCS(=O)(=O)c1nc(NC2CC2)cc(-c2ccc3c(ccn3C3CC(C)(C)NC(C)(C)C3)c2)n1 [NVS-1]
5. Cc1[nH]c2ccccc2c1CCNCc1ccc(/C=C/C(=O)NO)cc1 [PANOBINOSTAT]
6. CCCCc1oc2ccc(NS(C)(=O)=O)cc2c1C(=O)c1ccc(OCCCN(CCCC)CCCC)cc1 [DRONEDARONE]

[54.8, 104, 141, 124, 272, 91.3]

====

Kindly state EC50 (log10 M) for each of the entries shown.
Tested on: DIPGX29 (H3.3 K27M diffuse intrinsic pontine glioma line)
method.notes: EC50 (inflection of fitted growth-inhibition curve) (log10 M)
One number for each entry.

INSERT INTO results (molecule, observation_type, data_value) VALUES
  ('C=CC(=O)N1CCC[C@@H](n2nc(-c3ccc(Oc4ccccc4)cc3)c3c(N)ncnc32)C1 [IBRUTINIB]', 'EC50 (log10 M)', -5);

Value sought for every listed molecule: EC50 (log10 M).
1. Nc1cc(C(F)(F)F)c(-c2cc(N3CCOCC3)nc(N3CCOCC3)n2)cn1 [BUPARLISIB]
2. COc1cc(C(=O)N2CC[C@@H](O)[C@@H](N)C2)cc2nc(-c3cc4ccccc4n3CC3CC3)n(C)c12 [GSK-484]
3. Cc1c(C2CCN(CCc3ccccc3)CC2)noc1-c1ccc(Cl)cc1 [L-741,742]
4. Clc1ccccc1C(c1ccccc1)(c1ccccc1)n1ccnc1 [CLOTRIMAZOLE]

[-5.14, -4.94, -4.99, -4.92]

====

Tested on: SUDIPGVI (diffuse intrinsic pontine glioma line)
method.notes: area under dose-response curve of % growth inhibition (log2 RLU vs DMSO / staurosporine), 1e-11 to 1e-4 M (% x log10 M); higher = more growth inhibition
observation.type: area under dose-response curve
One number for each entry.

INSERT INTO assay_data (compound, data_value) VALUES
  ('CO[C@H]1C[C@@H]2CC[C@@H](C)[C@@](O)(O2)C(=O)C(=O)N2CCCC[C@H]2C(=O)O[C@H]([C@H](C)C[C@@H]2CC[C@@H](OC(=O)C(C)(CO)CO)[C@H](OC)C2)CC(=O)[C@H](C)/C=C(\C)[C@@H](O)[C@@H](OC)C(=O)[C@H](C)C[C@H](C)/C=C/C=C/C=C/1C', 89),
  ('COC(=O)[C@]12CCC(C)(C)C[C@H]1[C@H]1C(=O)C=C3[C@@]4(C)C=C(C#N)C(=O)C(C)(C)[C@@H]4CC[C@@]3(C)[C@]1(C)CC2', 155),
  ('NC(=O)Nc1sc(-c2ccc(F)cc2)cc1C(N)=O', 6.26),
  ('O=C(Nc1ccc([N+](=O)[O-])cc1Cl)c1cc(Cl)ccc1O [NICOLSAMIDE]', 109),
  ('C[C@]1(c2nc3c(C(N)=O)cccc3[nH]2)CCCN1', 0);

Could I get area under dose-response curve for every one of these entries?
1. Nc1ccc2ncnc(NCCc3ccc(Oc4ccccc4)cc3)c2c1
2. COc1cccc2c1C(=O)c1c(O)c3c(c(O)c1C2=O)C[C@@](O)(C(=O)CO)C[C@@H]3O[C@H]1C[C@H](N)[C@H](O)[C@H](C)O1
3. CN1CCCN(C(=O)c2cccc(-c3ccc(/C=C4/C(=O)Nc5ccc(Cl)cc54)o3)c2)CC1
4. Cc1noc2c1-c1ccccc1C(c1ccc(Cl)cc1)=N[C@H]2CC(N)=O

242
159
130
121

====

Tested on: HGGX6 (H3.3 G34R paediatric high-grade glioma line)
method.notes: area under dose-response curve of % growth inhibition (log2 RLU vs DMSO / staurosporine), 1e-11 to 1e-4 M (% x log10 M); higher = more growth inhibition
Output Condition met for area under dose-response curve not less than 40; output Condition not met otherwise.

INSERT INTO assay_data (compound, class_name) VALUES
  ('Clc1ccc(CCC(Cn2ccnc2)Sc2c(Cl)cccc2Cl)cc1 (centres undefined) [BUTOCONAZOLE]', 'Condition not met');

Please indicate if the recorded area under dose-response curve for O=C(c1cccc(Br)c1)N1CCC(N2CCCC2)CC1 [UNC926] meets or exceeds 40.
Condition not met

====

Give area under dose-response curve for every item shown.
Test system: HGGX6
method.notes: area under dose-response curve of % growth inhibition (log2 RLU vs DMSO / staurosporine), 1e-11 to 1e-4 M (% x log10 M); higher = more growth inhibition
Give bare numbers.

INSERT INTO assay_data (compound, data_value) VALUES
  ('CC(=O)O[C@H]1CC[C@@]2(C)C(=CC[C@@H]3[C@@H]2CC[C@]2(C)C(c4cccnc4)=CC[C@@H]32)C1 [ABIRATERONE ACETATE]', 0);

Each compound below has a reported value. Please supply its area under dose-response curve.
1. Nc1ncn([C@H]2C[C@H](OP(=O)(O)OC[C@H]3O[C@@H](n4cnc5c(=O)[nH]c(N)nc54)C[C@@H]3O)[C@@H](CO)O2)c(=O)n1 [GUADECITABINE]
2. O=C(O)c1ccc(CN2CCC(CN[C@@H]3C[C@H]3c3ccccc3)CC2)cc1
3. Cc1nc(-c2cn3c(n2)-c2ccc(-c4cnn(C(C)(C)C(N)=O)c4)cc2OCC3)n(C(C)C)n1 [TASELISIB]
4. CCN(CC)CCOCCOC(=O)C(CC)(CC)c1ccccc1 [OXELADIN]

1: 0; 2: 0.903; 3: 86; 4: 28.1

Please go through the list and note area under dose-response curve for each compound.
1. COc1c(C)c2c(c(O)c1C/C=C(\C)CCC(=O)OCCN1CCOCC1)C(=O)OC2 [MYCOPHENOLATE MOFETIL]
2. CO[C@H]1C[C@@H]2CC[C@@H](C)[C@@](O)(O2)C(=O)C(=O)N2CCCC[C@H]2C(=O)O[C@H]([C@H](C)C[C@@H]2CC[C@@H](O)[C@H](OC)C2)CC(=O)[C@H](C)/C=C(\C)[C@@H](O)[C@@H](OC)C(=O)[C@H](C)C[C@H](C)/C=C/C=C/C=C/1C [SIROLIMUS]
3. Cc1ccc(C(=O)Nc2ccc(CN3CCN(C)CC3)c(C(F)(F)F)c2)cc1C#Cc1cnc2cccnn12 [PONATINIB]
4. CC(=O)OC[C@H]1O[C@@H]([S-])[C@H](OC(C)=O)[C@@H](OC(C)=O)[C@@H]1OC(C)=O.CCP(CC)CC.[Au+] [AURANOFIN]
5. O=C(Nc1ccc([N+](=O)[O-])cc1Cl)c1cc(Cl)ccc1O [NICOLSAMIDE]
6. CC(C)N(C[C@H]1O[C@@H](n2cnc3c(N)ncnc32)[C@H](O)[C@@H]1O)[C@H]1C[C@@H](CCc2nc3cc(C(C)(C)C)ccc3[nH]2)C1 [PINOMETOSTAT]
7. CC(=O)N1CCN(c2ccc(OCC3COC(Cn4ccnc4)(c4ccc(Cl)cc4Cl)O3)cc2)CC1 (configuration not stated) [KETOCONAZOLE]

30.4
62.6
155
218
85.2
4.37
53.4

These measurements were taken from the supplement of paper PMC8253809.
